Test system: BT-549 breast
assayInfo: NCI-60 one-dose screen, 48 h (100 = growth as untreated, 0 = no growth, -100 = all killed)
conditionsUsed: 10 µM
About 83,000 compounds went through this panel and 20% of them were active in at least one assay; those are over-represented in the sample as a whole.
growth values for the compounds below.
Response body: numeric value in %, unit text excluded.

- compound: "COc1ccc(CN2[C@@H](C(=O)NCc3ccc(C(=O)NO)cc3)Cc3c([nH]c4ccccc34)[C@@H]2C2CC2)cc1"
  unitAnnotation: "%"
  growth: 43.3
- compound: "O=S(=O)(Nc1ncccn1)c1ccc(-n2c(-c3ccc(Br)cc3)nc(-c3ccccc3)c2-c2ccccc2)cc1"
  unitAnnotation: "%"
  growth: 8.3

Note down growth recorded for "O=C(Cn1nc(-c2ccccc2)ccc1=O)NNC(=S)NC1CCCCC1"
111

Note down growth recorded for O=C(c1ccc(Cl)cc1)C1[C@H](c2ccccc2Br)[C@@H](c2ccccc2)NC12C(=O)Nc1ccc(Br)cc12 (stereo not given in full)
54.8

Note down growth recorded for "NS(=O)(=O)c1ccc(NC(=O)CSc2ccc(-c3ccccc3)nn2)c(Br)c1"
46.3

----------
System: EKVX NSCLC
assayInfo: NCI-60 one-dose screen, 48 h
conditionsUsed: 10 µM
Compounds without any hit were thinned out: in the full panel of roughly 83,000, 20% have a hit. Active and inactive are the calls of the source. How the source made its calls: active means growth percent below 10; inactive means the rest.
Permitted responses: active, inactive

Some solved entries appear below for comparison.
- compound: "CNC(=O)c1cc(-c2ccc(NC(=O)Nc3ccc(C)cc3)cc2)nc2cccnc12"
  assignedLabel: "inactive"
- compound: "CCOC(=O)C1=C(N)N(c2ccccc2)C2=C(C(=O)CC(C)(C)C2)C1c1ccccc1OC (stereo not given)"
  assignedLabel: "inactive"
- compound: "O=C1Nc2cc(Cl)ccc2/C1=C/c1ccc(OCc2ccc(Br)cc2F)cc1"
  assignedLabel: "active"
- compound: "Cc1cccc2cc(-c3cc(-c4ccccc4)nc(=O)[nH]3)c(Cl)nc12"
  assignedLabel: "inactive"

Now take the following compound into account.
Answer briefly: the call reported for "O=c1c2ccccc2nc(COc2ccccc2)n1/N=C/c1ccc(N2CCOCC2)cc1" in this assay.
inactive

----------
Tested on: OVCAR-3 ovarian
assayInfo: NCI-60 one-dose screen, 48 h (100 = growth as untreated, 0 = no growth, -100 = all killed)
conditionsUsed: 10 µM
Compounds without any hit were thinned out: in the full panel of roughly 83,000, 20% have a hit.
growth values for the compounds below.
Response body: numeric value in %, unit text excluded.

Some entries whose results are on file:
- compound: "O=C1CCC(N2Cc3c(NCc4ccc(-c5ccccc5)cc4)cccc3C2=O)C(=O)N1 (configuration not stated)"
  assayedTarget: "OVCAR-3 ovarian"
  unitAnnotation: "%"
  growth: 82.8
- compound: "CC(C)NC(=O)c1cc(-c2ccc(NC(=O)Nc3ccc(N4CCN(C)CC4)c(C(F)(F)F)c3)cc2)nc2cccnc12"
  assayedTarget: "OVCAR-3 ovarian"
  unitAnnotation: "%"
  growth: -84.9
- compound: "CCN1CCN(c2ccc(NC(=O)Nc3ccc4c(c3F)CCN4c3ccnc(C(=O)NC)c3)cc2C(F)(F)F)CC1"
  assayedTarget: "OVCAR-3 ovarian"
  unitAnnotation: "%"
  growth: -85.6
- compound: "Cc1ccc(C(=O)N/C(=C2/OCCN2C)[P+](c2ccccc2)(c2ccccc2)c2ccccc2)cc1"
  assayedTarget: "OVCAR-3 ovarian"
  unitAnnotation: "%"
  growth: 54.5
- compound: "CC(=O)c1cc(C(=O)N2c3ccccc3Sc3ccccc32)n2ccc(C)cc12"
  assayedTarget: "OVCAR-3 ovarian"
  unitAnnotation: "%"
  growth: 58

Note down growth recorded for "CC(C)C(=O)Nc1ccc(C(=O)NC(=S)Nc2ccc(C(=O)O)cc2)cc1"
91.1

Note down growth recorded for "CN1C(=O)/C(=C/c2nccs2)SC1=S"
114

Note down growth recorded for "CN1CCc2c(sc3ncnc(N/N=C/c4ccc5ccccc5c4)c23)C1"
75

Note down growth recorded for "Cc1ccc(-c2cc(C(=O)N=Nc3c(O)[nH]c4ccccc34)c3ccccc3n2)cc1"
-65.7

Note down growth recorded for "O=C(CSc1nnc(-c2c[nH]c3ccccc23)n1-c1ccccc1)Nc1ccc(C(=O)/C=C/c2ccc(Cl)cc2)cc1"
69.6

Note down growth recorded for "COc1cccc(-c2ccnc(/N=C(\N)Nc3ccc(S(=O)(=O)Nc4nc(C)cc(C)n4)cc3)n2)c1"
99.3

Note down growth recorded for "CNCc1cccc2c1OCCCCCC[C@@](C)(O)CC1(CC1)S(=O)(=O)c1ccc(cc1)-c1cnc(N)c(n1)C(=O)N2"
-91.1

Note down growth recorded for "O=C1Nc2ccc(Cl)cc2/C1=C/c1cccc(OCc2ccccc2)c1"
8.28

Note down growth recorded for "O=C(CS(=O)(=O)c1oc(-c2ccc(Cl)cc2)nc1S(=O)(=O)c1ccccc1)N1CCCC1"
-90.1

Note down growth recorded for "O=C(Nc1ccncc1)c1ccc(-n2c(=O)[nH]c3ccccc3c2=O)cc1"
113

Note down growth recorded for "N#Cc1c(-c2ccc(F)cc2)nc(SCc2ccc(F)cc2)nc1N1CCOCC1"
75.2

Note down growth recorded for "CN1CCN(c2ccc(Nc3nc(NCCCNC(=O)c4ccccc4)c4sccc4n3)cc2)CC1"
78.5

Note down growth recorded for "Cc1ccc(F)cc1N/C=c1\s/c(=C(\C#N)C(=O)Nc2ccccc2)n(-c2ccccc2)c1=O"
99

Note down growth recorded for COc1cc2c(c(OC)c1OC)C(=O)CC(c1cccc(NC(=O)c3cccc(N)c3)c1)O2 (configuration not stated)
80.9

Note down growth recorded for "COc1ccsc1/C=N/NC(=O)c1[nH]c2ccc(Br)cc2c1-c1ccccc1"
25.8

Data provenance: PubChem BioAssay (NCI)
